The following molecules are listed with their measured IC50 values.
- System Tested: SGLT2 (Homo sapiens)
- Construct: expressed in transfected cells
- Assay Remarks: Change in SGLT2 inhibition according to drug pretreatment time (CHO-SGLT2)
- Type: cell-based
- Conditions: IC50 according to pretreatment time (nM), SGLT2, 1 h, 1 h pretreatment in sodium-free buffer, CHO-SGLT2
- Description: All data values are expressed as the mean±SD of […].
Give your result in nM as a bare value.

Record excerpt, results attached:
- Molecule: "OC[C@H]1O[C@@H](c2ccc(Cl)c(Cc3ccc(O[C@H]4CCOC4)cc3)c2)[C@H](O)[C@@H](O)[C@@H]1O [Empagliflozin]"
  IC50 (nM): 6.67
- Molecule: "OC[C@H]1O[C@@H](c2cc(Cc3ccc(C4CC4)cc3)c(Cl)c3c2CCO3)[C@H](O)[C@@H](O)[C@@H]1O [Enavogliflozin]"
  IC50 (nM): 0.285
- Molecule: "OC[C@H]1O[C@@H](c2cc(Cc3ccc(C4CC4)cc3)c(Cl)c3c2CC(O)O3)[C@H](O)[C@@H](O)[C@@H]1O (stereo partly shown) [M1]"
  IC50 (nM): 5.24

As a next step, examine the molecule that follows.
In one line, give reported IC50 of the entry OC[C@H]1O[C@@H](c2cc(Cc3ccc(C4(O)CC4)cc3)c(Cl)c3c2CCO3)[C@H](O)[C@@H](O)[C@@H]1O [M2] .
3.63

====

- System Tested: SGLT2 (Homo sapiens, UniProt P31639)
- Construct: expressed in transfected cells
- Sequence (P31639 whole entry): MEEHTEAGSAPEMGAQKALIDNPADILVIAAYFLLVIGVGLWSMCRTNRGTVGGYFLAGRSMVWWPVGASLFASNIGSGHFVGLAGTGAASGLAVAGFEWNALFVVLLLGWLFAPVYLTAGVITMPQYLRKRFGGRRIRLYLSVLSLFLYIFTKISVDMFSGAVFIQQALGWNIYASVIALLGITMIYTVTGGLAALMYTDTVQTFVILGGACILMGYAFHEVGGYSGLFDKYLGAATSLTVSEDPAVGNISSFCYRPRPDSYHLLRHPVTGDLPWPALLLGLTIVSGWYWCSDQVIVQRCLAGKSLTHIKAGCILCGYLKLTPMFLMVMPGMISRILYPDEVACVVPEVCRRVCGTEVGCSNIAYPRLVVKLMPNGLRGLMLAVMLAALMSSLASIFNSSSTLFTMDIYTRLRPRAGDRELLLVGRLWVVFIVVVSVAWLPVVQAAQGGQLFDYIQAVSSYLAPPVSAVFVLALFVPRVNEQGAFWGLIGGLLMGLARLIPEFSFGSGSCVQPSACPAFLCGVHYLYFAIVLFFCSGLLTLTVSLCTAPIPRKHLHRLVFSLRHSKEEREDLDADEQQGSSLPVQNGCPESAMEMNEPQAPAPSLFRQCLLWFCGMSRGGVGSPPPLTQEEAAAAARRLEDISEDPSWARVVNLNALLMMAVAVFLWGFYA
- Assay Remarks: Change in SGLT2 inhibition according to drug pretreatment time (CHO-SGLT2)
- Assay type: cell-based
- Conditions: IC50 according to pretreatment time (nM), SGLT2, 2 h, 2 h pretreatment in sodium-free buffer, CHO-SGLT2
The following molecules are listed with their measured IC50 values.
Give your result in nM as a bare value.

Recall the reported IC50 of "OC[C@H]1O[C@@H](c2cc(Cc3ccc(C4CC4)cc3)c(Cl)c3c2CCO3)[C@H](O)[C@@H](O)[C@@H]1O" on SGLT2 (Homo sapiens, UniProt P31639) and write it down.
0.519

Recall the reported IC50 of "OC[C@H]1O[C@@H](c2cc(Cc3ccc(C4(O)CC4)cc3)c(Cl)c3c2CCO3)[C@H](O)[C@@H](O)[C@@H]1O" on SGLT2 (Homo sapiens, UniProt P31639) and write it down.
3.24

Recall the reported IC50 of OC[C@H]1O[C@@H](c2cc(Cc3ccc(C4CC4)cc3)c(Cl)c3c2CC(O)O3)[C@H](O)[C@@H](O)[C@@H]1O (stereo partly shown) on SGLT2 (Homo sapiens, UniProt P31639) and write it down.
9.95

Recall the reported IC50 of "OC[C@H]1O[C@@H](c2ccc(Cl)c(Cc3ccc(O[C@H]4CCOC4)cc3)c2)[C@H](O)[C@@H](O)[C@@H]1O" on SGLT2 (Homo sapiens, UniProt P31639) and write it down.
7.35

====

- System Tested: SGLT1 (Homo sapiens)
- Construct: expressed in transfected cells
- Sequence (P13866 1-664): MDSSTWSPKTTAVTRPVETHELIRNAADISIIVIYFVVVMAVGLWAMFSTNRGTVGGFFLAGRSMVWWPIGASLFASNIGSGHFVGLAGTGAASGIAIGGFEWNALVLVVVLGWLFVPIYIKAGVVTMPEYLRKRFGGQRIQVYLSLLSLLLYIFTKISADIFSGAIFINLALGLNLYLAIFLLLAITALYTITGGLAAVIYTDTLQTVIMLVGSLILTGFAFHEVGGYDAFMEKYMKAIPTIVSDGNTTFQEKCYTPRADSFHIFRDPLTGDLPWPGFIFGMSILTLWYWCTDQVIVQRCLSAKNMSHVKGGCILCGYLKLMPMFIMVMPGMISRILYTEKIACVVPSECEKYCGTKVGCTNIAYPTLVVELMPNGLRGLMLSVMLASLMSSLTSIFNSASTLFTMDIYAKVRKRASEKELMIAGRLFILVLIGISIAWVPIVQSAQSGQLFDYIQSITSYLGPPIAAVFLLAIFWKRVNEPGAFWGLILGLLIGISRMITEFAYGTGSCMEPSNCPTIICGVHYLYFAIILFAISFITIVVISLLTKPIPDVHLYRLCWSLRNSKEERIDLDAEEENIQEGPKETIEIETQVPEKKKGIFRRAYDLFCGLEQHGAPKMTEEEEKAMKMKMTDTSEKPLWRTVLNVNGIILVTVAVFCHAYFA
- Assay Remarks: Inhibition of [14C]AMG uptake in SGLT1-overexpressing CHO cells
- Type: cell-based
- Conditions: IC50 (nM) SGLT1 mean ± SD (n = 3), 10 μM [14C]AMG, 2 h, 37° C.
- Procedure: An SGLT1-overexpressing cell line (CHO-SGLT1 stable cells) and mock cells (CHO-mock cells) were cultured to reach 80% confluency, and then the cells were seeded in 96-well plates at 1×10^5 cells/well. […] [^14C]AMG in the samples was measured using the liquid scintillation counter. At this time, the inhibitory effect Sigmoid Emax model was used, and the WinNonlin program (ver. 2.0) was utilized. All data values were expressed as the mean±standard deviation (SD) of three independent experiments.
Observable: IC50 (nM)
Give your result in nM as a bare value.

- Smiles: "OC[C@H]1O[C@@H](c2cc(Cc3ccc(C4(O)CC4)cc3)c(Cl)c3c2CCO3)[C@H](O)[C@@H](O)[C@@H]1O"
  Uom: "nM"
  IC50: 1220

In one line, give reported IC50 of the entry "OC[C@H]1O[C@@H](c2cc(Cc3ccc(C4CC4)cc3)c(Cl)c3c2CCO3)[C@H](O)[C@@H](O)[C@@H]1O" .
861
